molecular target: CDK2/cyclin A (Homo sapiens, UniProt P24941); assay: CDK2/cyclin A enzyme assay; format: biochemical; conditions: Tables 1 and 2
TEST_READOUT: CDK2/cyclin A inhibitory activity, in words

COMPOUND	RECORDED_VALUE
Cc1nn(-c2ccccn2)c2c1C(=O)CC(c1ccccc1)C2Br (centres unmarked) [Compound 18d]	inactive
Cc1nn(-c2ccccn2)c2c1C(=O)NCC(C)(C)C2	inactive
Cc1nn(-c2ccccn2)c2c1/C(=N/O)CC(C)(C)C2Br (centres unmarked)	weak inhibitory activity
Cc1nn(-c2ccccn2)c2c1C(O)CC(C)(C)C2Br (centres unmarked)	weak inhibitory activity

---

biological target: CDK2/cyclin A (Homo sapiens); assay: CDK2/cyclin A enzyme assay; format: biochemical; details: Tables 1 and 2
TEST_READOUT: CDK2/cyclin A inhibitory activity, in words

COMPOUND	RECORDED_VALUE
Cc1nn(-c2ncccc2C(F)(F)F)c2c1C(=O)C(Br)C(C)(C)C2 (stereo not shown)	low activities
Cc1cccnc1-n1nc(C)c2c1CC(C)(C)C(Br)C2=O (stereo not shown)	low activities
Cc1nn(-c2ncccc2C(F)(F)F)c2c1C(=O)CC(C)(C)C2Br (stereo not shown)	low activities

---

biological target: CDK2 (Homo sapiens, UniProt P24941)
TEST_READOUT: Kd (µM)
Could you give me the number in µM? Just the number is fine.

stdin: State, in one line, measured Kd of Cc1nn(-c2ccccn2)c2c1C(=O)CC(C)(C)C2Br (stereo not shown) [Compound 3]
stdout: 15
